# Test system: PKAC-beta
# Construct: gene PRKACB
# Settings: concentration: 1 μM, replicates: in singlicate; n = 1;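 note: KINOMEscan kinase panel screen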
# if measured %Inh < 6%: criterion met  # else: criterion not met

[[record]]
compound = "CN(C)CCN(C)C(=O)c1cc(-c2ccncc2)c(-c2ccc(Cl)c(O)c2)o1.Cl.Cl"
category_label = "criterion met"

[[record]]
compound = "Fc1cc(Cl)ccc1Nc1ccnc2cc(I)ccc12"
category_label = "criterion met"

[[record]]
compound = "COc1ccc(CNC(=O)NC2CCN(c3ccnc(Nc4cc(OC)c(OC)c(OC)c4)n3)C2)cc1 (centres unmarked)"
category_label = "criterion met"


**Q:** For "COc1ccc(Nc2nccc(NCCNC(=O)Nc3ccccc3F)n2)cc1" , is the recorded %Inh below the cut-off of 6%?
**A:** criterion met

**Q:** For "O=C(Nc1n[nH]c2nc(-c3nccs3)c(Br)cc12)C1CC1" , is the recorded %Inh below the cut-off of 6%?
**A:** criterion met

**Q:** For "NC(=O)c1nnc2ccccc2c1N" , is the recorded %Inh below the cut-off of 6%?
**A:** criterion not met

**Q:** For "CC(C)(C)c1ccc(C(=O)Nc2cn3cc(-c4cccnc4)ccc3n2)cc1" , is the recorded %Inh below the cut-off of 6%?
**A:** criterion not met

**Q:** For "Cc1cccc(-c2nc(C)cc(Nc3ccncc3)n2)n1" , is the recorded %Inh below the cut-off of 6%?
**A:** criterion not met

**Q:** For "CCn1c(-c2cccnc2O)nc2cnccc21" , is the recorded %Inh below the cut-off of 6%?
**A:** criterion met

**Q:** For "CC(=O)Nc1nc2cnc(Nc3cc(NC(=O)c4cccc(CCC#N)c4)ccc3C)nc2s1" , is the recorded %Inh below the cut-off of 6%?
**A:** criterion met

====

# Test system: STK36
# Settings: concentration: 1 μM, replicates: in singlicate; n = 1
Measure: %Inh (%)
Numbers only, in %.

Consider the worked cases shown below.
[[record]]
molecule = "O=C(Nc1ccc2c(c1)OCO2)NC1CCN(c2ccnc(Nc3ccc(F)cc3)n2)C1 (stereo not shown) [GSK1379724]"
value = 0

[[record]]
molecule = "Cn1ccc2ncnc(Oc3ccc(NC(=O)Nc4ccccc4)cc3)c21"
value = 0

[[record]]
molecule = "CCn1c(-c2cccnc2O)nc2cnccc21 [SB-736715]"
value = 0

[[record]]
molecule = "Cc1nnc(-c2ccc3occ(-c4ccc(S(C)=O)cc4)c3c2)[nH]1 (stereo not shown)"
value = 3


Go through the list and state %Inh for each entry.
1. O=C(Nc1ccccc1)Nc1cccc(Oc2ccc3nccn3n2)c1
2. CC(C)(C)c1ccc(C(=O)Nc2cn3cc(-c4cccnc4)ccc3n2)cc1
3. Fc1cccc(COc2nnc(-c3ccc4c(c3)CCO4)o2)c1
4. COc1ccc(Nc2nccc(NCCNC(=O)Nc3ccccc3F)n2)cc1 [GSK1379901]

**A:**
1: 0; 2: 4; 3: 7; 4: 0

====

Field: %Inh. Provide a value for each of the molecules that follow.
# Test system: PRKD3
# Settings: concentration: 1 μM, replicates: in singlicate; n = 1
One number for each entry, in %.

[[record]]
molecule = "Cl.O=C(Nc1cccc(-c2nn3ncccc3c2-c2ccnc(Nc3cccnc3)n2)c1)c1c(F)cccc1F [GSK312879]"
value = 25

[[record]]
molecule = "Cc1cccc(-c2nc(-c3ccc(S(C)(=O)=O)cc3)sc2-c2ccnc(NCCc3ccccc3)c2)c1"
value = 0

[[record]]
molecule = "CCn1c(-c2cccnc2O)nc2cnccc21 [SB-736715]"
value = 0

[[record]]
molecule = "Cl.c1ccc(-c2n[nH]cc2-c2ccnc(-c3ccc(CN4CCOCC4)cc3)c2)nc1 [GW776245]"
value = 28


Go through the list and state %Inh for each entry.
1. COc1cc2nccc(Nc3ccc(NC(=O)c4ccc(C)cc4)c(O)c3)c2cc1OC.Cl [GW440132]
2. Cc1cccc(-c2nc(Nc3cccc(C(N)=O)c3)c3ccccc3n2)n1 [GW876019]
3. O=C(O)COc1ncnc2cc(-c3ccc4[nH]ncc4c3)sc12

**A:**
[0, 87, 25]

Go through the list and state %Inh for each entry.
1. Cc1cccc(-c2nc(Nc3ccc4[nH]ncc4c3)c3ccccc3n2)n1 [GW857175]
2. Cn1cncc1-c1ccc2ncnc(Nc3ccc(OCc4ccccc4)cc3)c2c1 [GW320571]
3. Fc1cc(Cl)ccc1Nc1ccnc2cc(-c3ccc(CN4CCCCC4)o3)ccc12 [GW560116]
4. CN(C)CCN(C)C(=O)c1cc(-c2ccncc2)c(-c2ccc(Cl)c(O)c2)o1.Cl.Cl [SB-710397]
5. COc1cc2ncnc(Nc3ccc4nc(-c5ccccc5)[nH]c4c3)c2cc1OC.Cl [GW282450]
6. O=C(Nc1n[nH]c2cc(-c3cccc(F)c3F)ccc12)C1CC1 [SB-733894]
7. NC(=O)c1nnc2ccccc2c1N
8. CN1C(=O)C(Nc2ccc(Cl)c(C(=O)O)c2)=C(c2ccc(Cl)cc2)C1=O [SB-404290]

**A:**
1. 98.1
2. 15
3. 0
4. 12
5. 7
6. 0
7. 0
8. 0

====

Field: %Inh. Provide a value for each of the compounds that follow.
# System: HASPIN
# Construct: gene GSG2
# Settings: concentration: 1 μM, replicates: in singlicate; n = 1
Numbers only, in %.

Consider the worked cases shown below.
[[record]]
compound = "CS(=O)(=O)c1ccc(-c2c(-c3ncn[nH]3)sc(N3CCOCC3)c2C#N)cc1"
experimental_target = "HASPIN"
value = 0

[[record]]
compound = "Cc1nnc(-c2ccc3occ(-c4ccc(S(C)=O)cc4)c3c2)[nH]1 (centres unmarked)"
experimental_target = "HASPIN"
value = 25

[[record]]
compound = "Cc1ccc(-c2cc(-c3c[nH]nc3-c3ccccn3)ccn2)cc1"
experimental_target = "HASPIN"
value = 35

[[record]]
compound = "COc1cccc(-c2cc(-c3c[nH]nc3-c3ccccn3)ccn2)c1"
experimental_target = "HASPIN"
value = 23


Read the next record carefully.
**Q:** Please look at "COc1ccccc1CNC(=O)c1cc(C(=O)c2ccccc2C)c[nH]1" and tell me its recorded %Inh on HASPIN.
**A:** 0

====

# System: PAK6
# Settings: concentration: 1 μM, replicates: in singlicate; n = 1
Measure: %Inh (%)
Numbers only, in %.

Consider the worked cases shown below.
[[record]]
molecule = "Cn1ccc2ncnc(Oc3ccc(Nc4nc5ccccc5[nH]4)cc3)c21"
value = 9

[[record]]
molecule = "Cl.O=C(Nc1cccc(-c2nn3ncccc3c2-c2ccnc(Nc3cccnc3)n2)c1)c1c(F)cccc1F"
value = 0

[[record]]
molecule = "CCCc1ccc(S(=O)(=O)NC2CCN(c3ccnc(Nc4ccc(F)cc4)n3)C2)cc1 (centres unmarked)"
value = 0

[[record]]
molecule = "Cc1csc(-c2nc(Nc3ccncc3)c3ccccc3n2)n1"
value = 0


Read the next record carefully.
**Q:** Quick one: give measured %Inh for "COC(=O)c1c(-c2ccccc2)c2cc(C(=O)O)ccc2c(=O)n1Cc1ccccc1"
**A:** 16

====

# Test system: RIOK3
# Settings: concentration: 1 μM, replicates: in singlicate; n = 1
Measure: %Inh

Go through the list and state %Inh for each entry.
1. CS(=O)(=O)c1ccc(-c2nc3n(c2-c2ccncc2)CCC3)cc1
2. Cc1cccc(-c2nc(Nc3cccc(C(N)=O)c3)c3ccccc3n2)n1
3. Cc1cccc(-c2nc(-c3ccc(S(C)(=O)=O)cc3)sc2-c2ccnc(NCCc3ccccc3)c2)c1
4. COc1cc(Nc2nccc(N3CCC(NC(=O)Nc4cc(C)ccc4C)C3)n2)cc(OC)c1OC (stereo not drawn)

**A:**
0%
26%
18%
34%

====

Field: %Inh. Provide a value for each of the molecules that follow.
# System: EPHA1
# Settings: concentration: 1 μM, replicates: in singlicate; n = 1
Numbers only, in %.

Consider the worked cases shown below.
[[record]]
smi = "CC(C)(C)c1ccc(C(=O)Nc2cn3cc(Cl)ccc3n2)cc1"
value = 0

[[record]]
smi = "Cn1ccc2ncnc(Oc3cccc(C(=O)Nc4ccccc4)c3)c21"
value = 0

[[record]]
smi = "Fc1cc(Cl)ccc1Nc1ccnc2cc(I)ccc12"
value = 71

[[record]]
smi = "Cn1cncc1-c1ccc2ncnc(Nc3ccc(OCc4ccccc4)cc3)c2c1"
value = 25


Read the next record carefully.
**Q:** Please look at "Cc1ccc(NC(=O)Nc2cc(C(C)(C)C)nn2-c2ccccc2)cc1" and tell me its recorded %Inh on EPHA1.
**A:** 7

====

# System: FES
# Settings: concentration: 1 μM, replicates: in singlicate; n = 1
# label = true if %Inh >= 20% else false

Below are worked cases with known answers.
[[record]]
smi = "Cc1c(Cn2ccn3c(=O)cc(N4CCOCC4)nc23)cccc1C(F)(F)F"
category_label = "true"

[[record]]
smi = "COC(=O)c1c(-c2ccccc2)c2cc(OC)ccc2c(=O)n1Cc1ccccc1"
category_label = "true"

[[record]]
smi = "COc1ccccc1CNC(=O)c1cc(C(=O)c2ccccc2C)c[nH]1"
category_label = "false"


**Q:** Check this compound for %Inh at or above 20%: "Nc1ncnc2[nH]c(-c3ccccc3)nc12"
**A:** false

**Q:** Check this compound for %Inh at or above 20%: "Cl.Oc1ccc(-c2nc(-c3ccccc3)[nH]c2-c2ccncc2)cc1"
**A:** false

**Q:** Check this compound for %Inh at or above 20%: "CN1C(=O)C(Nc2ccc(Cl)c(C(=O)O)c2)=C(c2ccc(Cl)cc2)C1=O"
**A:** false

**Q:** Check this compound for %Inh at or above 20%: "Cc1cccc(-c2nc(-c3ccc(S(C)(=O)=O)cc3)sc2-c2ccnc(NCCc3ccccc3)c2)c1"
**A:** false

**Q:** Check this compound for %Inh at or above 20%: "Cc1cccc(-c2nc(Nc3cccc(C(N)=O)c3)c3ccccc3n2)n1"
**A:** true

**Q:** Check this compound for %Inh at or above 20%: "Cc1cccc(-c2nc(C)cc(Nc3ccncc3)n2)n1"
**A:** false
